biological target: LCK (Homo sapiens (Human))
Sequence (P06239 whole entry, species assumed): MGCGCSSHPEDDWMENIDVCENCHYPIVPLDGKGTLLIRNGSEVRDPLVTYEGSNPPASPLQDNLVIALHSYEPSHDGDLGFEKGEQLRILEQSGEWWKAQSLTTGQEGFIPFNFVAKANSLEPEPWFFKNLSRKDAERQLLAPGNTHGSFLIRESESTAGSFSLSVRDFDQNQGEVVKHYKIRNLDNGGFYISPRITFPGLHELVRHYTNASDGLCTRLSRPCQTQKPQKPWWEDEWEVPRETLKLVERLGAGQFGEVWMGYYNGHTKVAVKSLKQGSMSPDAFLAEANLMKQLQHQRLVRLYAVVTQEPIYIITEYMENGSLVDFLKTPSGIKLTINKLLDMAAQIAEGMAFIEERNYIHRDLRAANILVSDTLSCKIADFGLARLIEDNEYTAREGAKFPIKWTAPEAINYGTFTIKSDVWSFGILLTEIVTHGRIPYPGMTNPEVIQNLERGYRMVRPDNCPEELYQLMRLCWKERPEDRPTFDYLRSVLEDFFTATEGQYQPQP
pIC50: −log10 of the molar value.
Here the recorded pIC50 is given for each entry.

C=CC(=O)N1CC[C@@H](n2nc(-c3ccc(Oc4ccccc4)cc3)c3cnccc32)C1 [Compound 1]; 5.00 to 6.00

Lab note: compound C=CC(=O)N1CCC[C@@H](n2nc(-c3ccc(Oc4cccc(OC)c4F)cc3)c3cncc(OC)c32)C1 [Compound 6] tested on LCK (Homo sapiens (Human)); recorded pIC50 was 5.00 to 6.00

###

molecular target: UniProt:P00533
Sequence (P00533 25-1210, species assumed): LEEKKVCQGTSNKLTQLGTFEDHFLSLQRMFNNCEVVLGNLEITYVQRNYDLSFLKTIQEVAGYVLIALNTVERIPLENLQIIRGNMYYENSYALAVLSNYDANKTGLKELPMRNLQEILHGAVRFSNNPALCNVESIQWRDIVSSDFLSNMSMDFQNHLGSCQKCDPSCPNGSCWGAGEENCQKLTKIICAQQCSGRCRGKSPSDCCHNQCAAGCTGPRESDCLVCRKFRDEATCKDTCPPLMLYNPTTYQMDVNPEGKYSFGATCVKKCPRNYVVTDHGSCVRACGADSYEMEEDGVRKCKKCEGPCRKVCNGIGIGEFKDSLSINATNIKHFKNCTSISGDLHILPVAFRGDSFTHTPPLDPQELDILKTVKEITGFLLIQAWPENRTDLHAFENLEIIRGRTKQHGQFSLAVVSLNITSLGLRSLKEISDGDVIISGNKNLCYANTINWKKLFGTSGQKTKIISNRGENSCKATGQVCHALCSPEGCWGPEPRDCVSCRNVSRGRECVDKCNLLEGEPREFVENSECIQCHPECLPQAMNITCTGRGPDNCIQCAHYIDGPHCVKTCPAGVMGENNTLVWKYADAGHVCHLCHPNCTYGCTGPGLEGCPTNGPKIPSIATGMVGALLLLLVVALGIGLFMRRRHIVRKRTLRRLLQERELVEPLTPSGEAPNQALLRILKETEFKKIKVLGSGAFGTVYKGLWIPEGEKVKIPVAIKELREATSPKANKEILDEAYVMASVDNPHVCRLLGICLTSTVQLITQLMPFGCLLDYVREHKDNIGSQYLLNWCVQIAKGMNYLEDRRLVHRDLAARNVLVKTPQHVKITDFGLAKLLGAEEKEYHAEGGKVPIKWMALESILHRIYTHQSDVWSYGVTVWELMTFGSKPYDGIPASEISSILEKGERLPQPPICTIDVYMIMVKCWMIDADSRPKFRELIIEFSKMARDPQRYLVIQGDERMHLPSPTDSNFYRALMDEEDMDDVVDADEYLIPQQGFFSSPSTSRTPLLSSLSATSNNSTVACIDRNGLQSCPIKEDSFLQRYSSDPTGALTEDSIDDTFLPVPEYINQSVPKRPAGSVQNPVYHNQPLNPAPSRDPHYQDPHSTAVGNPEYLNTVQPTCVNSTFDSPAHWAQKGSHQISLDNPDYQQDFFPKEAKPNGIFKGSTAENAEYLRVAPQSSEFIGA
pIC50: −log10 of the molar value.
quantity measured: pIC50

C=CC(=O)N1CCC[C@@H](n2nc(-c3ccc(Oc4cccc(OC)c4F)cc3)c3cncc(OC)c32)C1; 6.00 to 7.00

Below: the item to evaluate.
Reported UniProt:P00533 pIC50 for item `C=CC(=O)N1CC[C@@H](n2nc(-c3ccc(Oc4ccccc4)cc3)c3cnccc32)C1` was 6.00 to 7.00
